Molecular target: human GPR119 (Homo sapiens, UniProt Q8TDV5)
Sequence (Q8TDV5 1-335): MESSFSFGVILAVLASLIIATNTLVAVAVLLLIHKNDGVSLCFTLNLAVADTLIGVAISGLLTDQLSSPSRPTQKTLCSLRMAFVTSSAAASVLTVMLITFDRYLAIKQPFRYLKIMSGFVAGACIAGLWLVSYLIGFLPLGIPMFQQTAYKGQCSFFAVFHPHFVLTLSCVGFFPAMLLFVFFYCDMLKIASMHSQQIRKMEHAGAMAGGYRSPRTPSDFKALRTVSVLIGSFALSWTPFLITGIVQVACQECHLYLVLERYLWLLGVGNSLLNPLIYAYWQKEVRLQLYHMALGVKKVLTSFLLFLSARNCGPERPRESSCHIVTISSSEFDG
Experiment: Cyclic AMP Assay in Stable Cell Line (HTRF)
Conditions: Flp-In-CHO-hGPR119 cells, intracellular cAMP, 30 minutes at 37° C., 1 mM IBMX
Value Type: EC50 (µM)

[[record]]
line_notation = "CS(=O)(=O)N1CCC(c2cc(F)c(OC3CCN(Cc4nc(C(F)(F)F)cs4)CC3)c(F)c2)CC1"
recorded_result = 0.009

[[record]]
line_notation = "CS(=O)(=O)N1CCC(c2cc(F)c(OC3CCN(Cc4ccc(C(F)(F)F)cc4)CC3)c(F)c2)CC1"
recorded_result = 0.009

[[record]]
line_notation = "Cc1ccc(CN2CC(Oc3ccc(N4CCN(S(C)(=O)=O)CC4)nc3)C2)cc1"
recorded_result = 0.238

[[record]]
line_notation = "CC1(Oc2c(F)cc(C3CCN(S(C)(=O)=O)CC3)cc2F)CN(Cc2ccc(C(F)(F)F)cc2)C1"
recorded_result = 0.644

[[record]]
line_notation = "CS(=O)(=O)N1CCC(c2cc(F)c(OC3CCN(Cc4noc(C(F)(F)F)n4)CC3)c(F)c2)CC1"
recorded_result = 0.443

[[record]]
line_notation = "CS(=O)(=O)N1CCC(c2cc(F)c(OC3CN(Cc4ncc(C(F)(F)F)cn4)C3)c(F)c2)CC1"
recorded_result = 0.764

[[record]]
line_notation = "CS(=O)(=O)N1CCN(c2ccc(OC3CN(Cc4cccc(C(F)(F)F)c4)C3)cn2)CC1"
recorded_result = 0.884


* * *

target: UniProtKB Q8TDV5; assay: Cyclic AMP Assay in Stable Cell Line (HTRF); details: Flp-In-CHO-hGPR119 cells, intracellular cAMP, 30 minutes at 37° C., 1 mM IBMX
pEC50: −log10 of the molar value.
This listing pairs compounds with measured pEC50.
Value Type: pEC50

[[record]]
compound = "CS(=O)(=O)N1CCC(c2cc(F)c(OC3CN(Cc4ccc(C5(F)COC5)cc4)C3)c(F)c2)CC1"
recorded_result = 7.31

[[record]]
compound = "CS(=O)(=O)N1CCC(c2cc(F)c(OC3CCN(Cc4nc(C(F)(F)F)no4)CC3)c(F)c2)CC1"
recorded_result = 8.15

[[record]]
compound = "CC(C)c1noc(CN2CC(Oc3c(F)cc(C4CCN(S(C)(=O)=O)CC4)cc3F)C2)n1"
recorded_result = 7.12

[[record]]
compound = "CS(=O)(=O)N1CCN(c2cc(F)c(OC3CN(Cc4ccc(C(F)(F)F)cc4)C3)c(F)c2)C(=O)C1"
recorded_result = 6.48

[[record]]
compound = "CC(C)c1ccc(CN2CC(Oc3ccc(N4CCN(S(C)(=O)=O)CC4)cc3)C2)cc1"
recorded_result = 6.94

[[record]]
compound = "O=S(=O)(C1CCNC1)N1CCC(c2cc(F)c(OC3CN(Cc4ccc(C(F)(F)F)cc4)C3)c(F)c2)CC1 (stereo not drawn)"
recorded_result = 6.24

[[record]]
compound = "CS(=O)(=O)N1CCN(c2ccc(OC3CN(Cc4ccc(Cl)cc4)C3)cn2)CC1"
recorded_result = 6.87

[[record]]
compound = "CC(C)(C)OC(=O)N1CCC(S(=O)(=O)N2CCC(c3cc(F)c(OC4CN(Cc5ccc(C(F)(F)F)cc5)C4)c(F)c3)CC2)C1 (stereo not drawn)"
recorded_result = 6.67

[[record]]
compound = "CC(C)c1ccc(CN2CC(Oc3cnc(N4CCN(C(=O)OCc5ccccc5)CC4)cn3)C2)cc1"
recorded_result = 6.18

[[record]]
compound = "CS(=O)(=O)N1CCN(c2cnc(OC3CN(Cc4ccc(OC(F)(F)F)cc4)C3)cn2)C(=O)C1"
recorded_result = 7.92

[[record]]
compound = "CS(=O)(=O)N1CCC(c2cc(F)c(OC3CN(Cc4noc(C(F)(F)F)n4)C3)c(F)c2)CC1"
recorded_result = 6.68

[[record]]
compound = "CC(C)(F)c1noc(CN2CCC(Oc3c(F)cc(C4CCN(S(C)(=O)=O)CC4)cc3F)CC2)n1"
recorded_result = 7.55

[[record]]
compound = "CS(=O)(=O)N1CCN(c2cnc(OC3CN(Cc4ccc(C(F)(F)F)cc4)C3)cn2)CC1"
recorded_result = 7.16

[[record]]
compound = "CC(C)c1ccc(CN2CC(Oc3ccc(N4CCN(S(C)(=O)=O)CC4)nc3)C2)cc1"
recorded_result = 6.93

[[record]]
compound = "CC(C)c1ccc(CN2CC(Oc3cnc(N4CCN(S(C)(=O)=O)CC4)cn3)C2)cc1"
recorded_result = 7.66

